From: patent US5604215A

# systemTested: steroid sulphatase (Steryl Sulphatase EC 3.1.6.2) in MCF-7 cells (Homo sapiens, UniProt P08842)
# Construct: intact MCF-7 human breast cancer cells; endogenous in cells; host or cells: MCF-7 human breast cancer cells
# Sequence (P08842 22-583): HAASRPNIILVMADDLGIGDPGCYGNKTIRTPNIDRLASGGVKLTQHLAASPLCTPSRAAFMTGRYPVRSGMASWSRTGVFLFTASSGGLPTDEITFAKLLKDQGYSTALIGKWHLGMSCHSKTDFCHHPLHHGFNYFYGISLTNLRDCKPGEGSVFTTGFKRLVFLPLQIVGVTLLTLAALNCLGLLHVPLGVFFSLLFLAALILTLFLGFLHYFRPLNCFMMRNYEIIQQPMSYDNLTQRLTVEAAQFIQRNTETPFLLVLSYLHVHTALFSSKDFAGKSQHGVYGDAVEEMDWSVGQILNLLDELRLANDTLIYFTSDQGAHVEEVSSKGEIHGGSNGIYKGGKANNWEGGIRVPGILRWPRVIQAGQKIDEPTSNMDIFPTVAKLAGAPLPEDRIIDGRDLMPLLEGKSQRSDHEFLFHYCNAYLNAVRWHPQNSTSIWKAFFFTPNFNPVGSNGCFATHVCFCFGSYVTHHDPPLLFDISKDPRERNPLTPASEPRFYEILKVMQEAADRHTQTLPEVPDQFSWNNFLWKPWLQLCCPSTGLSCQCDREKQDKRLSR
# method: Inhibition of Steroid Sulphatase Activity in MCF-7 cells (intact MCF-7 human breast cancer cells, [6,7-^3 H]oestrone-3-sulphate substrate)
# Type: cell-based
# conditionContext: MCF7, Table II, inhibition over control incubations, read-out: % reduction over control (% inhibition), oestrone-3-sulphonates
property: inhibition at 10 µM (%)

>>> resultnumber("Cc1ccc(S(=O)(=O)Oc2ccc3c(c2)CC[C@@H]2[C@@H]3CC[C@]3(C)C(=O)CC[C@@H]23)cc1 [E1-3-MePhS, oestrone-3-p-toluenesulphonate]")
90.5
>>> resultnumber("CCS(=O)(=O)Oc1ccc2c(c1)CC[C@@H]1[C@@H]2CC[C@]2(C)C(=O)CC[C@@H]12 [E1-3-EtS, oestrone-3-ethylsulphonate]")
27.1
>>> resultnumber("CC1(C)C2CCC1(CS(=O)(=O)Oc1ccc3c(c1)CC[C@@H]1[C@@H]3CC[C@]3(C)C(=O)CC[C@@H]13)C(=O)C2 (some centres unmarked) [E1-3-CamS, oestrone-3-camphorylsulphonate]")
21.7
>>> resultnumber("C[C@]12CC[C@@H]3c4ccc(OS(C)(=O)=O)cc4CC[C@H]3[C@@H]1CCC2=O [E1-3-MeS, oestrone-3-methylsulphonate]")
54.2
>>> resultnumber("CCCCS(=O)(=O)Oc1ccc2c(c1)CC[C@@H]1[C@@H]2CC[C@]2(C)C(=O)CC[C@@H]12 [E1-3-BuS, oestrone-3-n-butylsulphonate]")
16.6

* * *

The entries below come with measured Steroid Sulphatase Activity in MCF-7 cells in the presence of oestrone-3-sulphonates values attached.
# systemTested: steroid sulphatase (Steryl Sulphatase EC 3.1.6.2) in MCF-7 cells (Homo sapiens)
# Construct: intact MCF-7 human breast cancer cells; endogenous in cells; host or cells: MCF-7 human breast cancer cells
# method: Inhibition of Steroid Sulphatase Activity in MCF-7 cells (intact MCF-7 human breast cancer cells, [6,7-^3 H]oestrone-3-sulphate substrate)
# Format: cell-based
# conditionContext: 10 μM; mean ± 1 S.D. n = 3, control 80.1 ± 3.3 (E1 -3-MeS: control 46.5 ± 2.3), *p ≤ 0.05 (E1 -3-BuS), **p ≤ 0.01 (EtS, CamS, MeS); E1 -3-MePhS: mean of 2 estimates, control 71.3
property: Steroid Sulphatase Activity in MCF-7 cells in the presence of oestrone-3-sulphonates (fmol/20 hr/10^6 cells)

>>> resultnumber("CC1(C)C2CCC1(CS(=O)(=O)Oc1ccc3c(c1)CC[C@@H]1[C@@H]3CC[C@]3(C)C(=O)CC[C@@H]13)C(=O)C2 (stereo partly shown) [E1-3-CamS, oestrone-3-camphorylsulphonate]")
62.7
>>> resultnumber("CCS(=O)(=O)Oc1ccc2c(c1)CC[C@@H]1[C@@H]2CC[C@]2(C)C(=O)CC[C@@H]12 [E1-3-EtS, oestrone-3-ethylsulphonate]")
58.4
>>> resultnumber("C[C@]12CC[C@@H]3c4ccc(OS(C)(=O)=O)cc4CC[C@H]3[C@@H]1CCC2=O [E1-3-MeS, oestrone-3-methylsulphonate]")
21.3
>>> resultnumber("CCCCS(=O)(=O)Oc1ccc2c(c1)CC[C@@H]1[C@@H]2CC[C@]2(C)C(=O)CC[C@@H]12 [E1-3-BuS, oestrone-3-n-butylsulphonate]")
66.8
